experiment: Inhibition of Helicobacter pylori IMPDH incubated for 10 mins by multilabel reader analysis
Result Type: IC50 (nM)
Report the figure in nM without appending any unit label.

Ask: May I ask what IC50 has been recorded for "Clc1ccc(Cn2cc(COc3cccc4ccccc34)nn2)cc1Cl" ?
Reply: 1270

Ask: How about "CN(C)c1ncnc2c1ncn2[C@@H]1O[C@H](CO)[C@@H](NC(=O)[C@@H](N)CCS(C)(=O)=O)[C@H]1O" ?
Reply: 1270

Ask: How about this compound: "COc1ccc(-c2oc3ccccc3c(=O)c2OCC(=O)Nc2ccc3c(c2)COC3=O)cc1"
Reply: 1880

----------
target: Aminodeoxyfutalosine nucleosidase (Helicobacter pylori (strain J99 / ATCC 700824) (Campylobacter pylori J99), UniProt Q9ZMY2); experiment: Inhibition of Helicobacter pylori MTAN assessed as dissociation constant
Sequence (Q9ZMY2 whole entry): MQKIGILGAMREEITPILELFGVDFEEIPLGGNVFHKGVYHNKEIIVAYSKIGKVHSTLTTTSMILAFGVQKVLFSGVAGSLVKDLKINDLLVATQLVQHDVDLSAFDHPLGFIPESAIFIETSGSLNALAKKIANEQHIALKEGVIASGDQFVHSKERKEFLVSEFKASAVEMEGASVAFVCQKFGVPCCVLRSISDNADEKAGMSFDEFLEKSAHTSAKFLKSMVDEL
pKd: −log10 of the molar value.
Result Type: pKd

Ask: What value of pKd has been recorded for this entry: "CCCSC[C@H]1CN(Cc2c[nH]c3c(N)ncnc23)C[C@@H]1O"
Reply: > 7.30

Ask: Param item: "CCCCCCSC[C@H]1CN(Cc2c[nH]c3c(N)ncnc23)C[C@@H]1O"
Reply: > 7.30

Ask: // same read-out, input: "CCCCSC[C@H]1CN(Cc2c[nH]c3c(N)ncnc23)C[C@@H]1O"
Reply: > 7.30

# credit: ChEMBL document CHEMBL5241087
